These data points were gathered from PubChem BioAssay AID330.

- Test system: P388 leukemia ip, CD2F1 mice, survival T/C
- run-description: NCI In Vivo Anticancer Drug Screen. Data for tumor model P388 Leukemia (intraperitoneal) in CD2F1 (CDF1) mice
- conditions-used: endpoint: median survival time; dose: 50.0 mg/kg/injection; schedule: Q01DX009 (ip); vehicle: saline with Tween-80; higher = longer survival
Toxic doses and inconclusive results are not listed.
endpoint: T/C

Which T/C is reported for this compound? `Cc1cc2sccc2cn1` 100 % of control

Which T/C is reported for this compound? `[Cl][Sn]([Cl])([S]c1nccc2ccccc12)[S]c1nccc2ccccc12` 102 % of control

Which T/C is reported for this compound? `CCCCN(C(=O)C(C)C)c1nc(C)co1` 112 % of control

Which T/C is reported for this compound? `Cc1ccnc(NC(N)=O)n1` 103 % of control

Which T/C is reported for this compound? `Cc1cc(C(F)(F)F)nc(NNc2nc(C)cc(C(F)(F)F)n2)n1` 102 % of control

Which T/C is reported for this compound? `Cn1c(=O)c2c(nc(CCCCc3nc4c(c(=O)n(C)c(=O)n4C)n3C)n2C)n(C)c1=O` 86 % of control

Which T/C is reported for this compound? C=C(C)CC1CN2CCc3cc(OC)c(OC)cc3C2CC1=O (stereo not drawn) 102 % of control

Which T/C is reported for this compound? `CN1CCC(=C(C#N)C#N)CC1` 115 % of control

* * *

- Tested on: P388 leukemia ip, CD2F1 mice, survival T/C
- run-description: NCI In Vivo Anticancer Drug Screen. Data for tumor model P388 Leukemia (intraperitoneal) in CD2F1 (CDF1) mice
- conditions-used: endpoint: median survival time; dose: 240.0 mg/kg/injection; schedule: Q01DX005 (ip); vehicle: Klucel (hydroxypropylcellulose) (HPC); higher = longer survival
Inconclusive results and toxic doses are left out.
endpoint: T/C

Which T/C is reported for this compound? `OCCCC(=S)NCCNC(=S)CCCO` 101 % of control

Which T/C is reported for this compound? `N#CC1=C(NC(N)=O)CCCC1` 106 % of control

Which T/C is reported for this compound? COc1ccc(C2OC(=N)C(=S)N2C)cc1O (centres undefined) 112 % of control

Which T/C is reported for this compound? `CC(C)OC(=O)NN(C(=O)OC(C)C)N(C)C` 103 % of control

Which T/C is reported for this compound? `Nc1nc(Cc2ccccc2)cc(-c2cc(Cc3ccccc3)nc(N)n2)n1` 97 % of control

Which T/C is reported for this compound? Cc1ccc(C2OC3=C(Nc4ccc([N+](=O)[O-])cc4N3)C2=O)cc1 (centres undefined) 96 % of control

Which T/C is reported for this compound? `O=C(NCC1CC1)NC(=O)c1c(F)cccc1Cl` 106 % of control

Which T/C is reported for this compound? `CC1(C)CC(Nc2ccccc2)=CC(=Nc2ccccc2)S1` 89 % of control

Which T/C is reported for this compound? CCCCCCC1C/C(=C/N(C)C)C(=O)O1 (centres undefined) 92 % of control

Which T/C is reported for this compound? `Cc1ccc2cccc(OC(=O)Nc3cccc(C(F)(F)F)c3)c2n1` 105 % of control

Which T/C is reported for this compound? `CCCCC1(O)C(=O)N(c2ccccc2)N(c2ccccc2)C1=O` 96 % of control

Which T/C is reported for this compound? CN(C)C1CS(=O)(=O)OC2=C1CCc1sccc12 (centres undefined) 97 % of control

Which T/C is reported for this compound? `COc1ccc(CCCc2cc3c(cc2OC)OCO3)cc1` 97 % of control

Which T/C is reported for this compound? CCc1ncc(C(C)(O)c2ccc(C)cc2)n1Cc1ccccc1 (centres undefined) 86 % of control

Which T/C is reported for this compound? `COc1ccc2ccccc2c1/C=[N+](/[O-])c1ccccc1` 112 % of control

Which T/C is reported for this compound? `O=c1[nH]c2ccccc2c(Oc2ccccc2)c1I` 101 % of control

Which T/C is reported for this compound? `CC(=O)N1CN(C)N(C)C1` 100 % of control

Which T/C is reported for this compound? CC1=C2C3OC(=O)C(C)C3CCC2(C)C=C(Cl)C1=O (centres undefined) 101 % of control

Which T/C is reported for this compound? `CCCCCC(=O)O[C@H]1CC[C@@H]2[C@H]1[C@@H]1CC[C@H]3O[C@]31C2(C)C` 121 % of control

Which T/C is reported for this compound? `CN(C)c1c2ccccc2c(NC=O)c2ccccc12` 86 % of control

Which T/C is reported for this compound? CC1=CN(C(=O)c2ccccc2)C(C#N)N(C(=O)c2ccccc2)C1C#N (centres undefined) 102 % of control

Which T/C is reported for this compound? CC(=O)Oc1cccc2c1C(=O)C1CC=CC(OC(C)=O)C1C2=O (centres undefined) 100 % of control

Which T/C is reported for this compound? `O=C(COc1ccc(Cl)cc1Cl)Nc1ccc(S(=O)(=O)O)cc1` 98 % of control

Which T/C is reported for this compound? CCC1(c2ccccc2)C(=O)NC(=O)N(CN2CCOCC2)C1=O (centres undefined) 98 % of control
